- TARGET OR TEST SYSTEM: human orexin type 2 receptor (hOX2R) (Homo sapiens (Human))
- Sequence (O43614 whole entry): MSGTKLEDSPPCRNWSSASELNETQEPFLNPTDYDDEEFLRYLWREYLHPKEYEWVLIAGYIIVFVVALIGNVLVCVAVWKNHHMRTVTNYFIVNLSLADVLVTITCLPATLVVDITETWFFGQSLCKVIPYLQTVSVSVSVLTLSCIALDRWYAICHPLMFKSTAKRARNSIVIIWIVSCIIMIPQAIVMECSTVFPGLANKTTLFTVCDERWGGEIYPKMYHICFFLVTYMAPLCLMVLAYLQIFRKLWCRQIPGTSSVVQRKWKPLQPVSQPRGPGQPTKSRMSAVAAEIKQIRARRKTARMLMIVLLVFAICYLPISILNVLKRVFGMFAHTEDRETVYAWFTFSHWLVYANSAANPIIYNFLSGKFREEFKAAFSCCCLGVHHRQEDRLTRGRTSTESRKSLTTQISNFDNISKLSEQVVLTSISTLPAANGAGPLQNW
- TEST SUMMARY: Measurement of orexin type 2 receptor agonist activity (Experimental Example 2-1, FLIPR TETRA, intracellular Ca2+)
- Type: cell-based
- CONDITION SUMMARY: CHO dhfr- cells expressing hOX2R, FLIPR TETRA, Fluo-4AM; read-out: Emax (%)
MEASUREMENT KIND: Emax (%)

CC(C)OC(=O)N1CCC[C@H](NS(C)(=O)=O)[C@@H]1CO[C@@H]1CCN(c2ncccn2)[C@H](C)C1 (stereo in doubt)
93
COC(=O)N1CCC[C@H](NS(C)(=O)=O)[C@@H]1CO[C@H]1CC[C@@H](c2ccccc2Cl)CC1 (relative stereo)
101
CS(=O)(=O)N[C@H]1CCCN[C@H]1CO[C@H]1CC[C@@H](c2ccccc2C(F)F)CC1
74
CC(=O)N1CCC[C@H](NS(C)(=O)=O)[C@@H]1COC1CCC(c2ccccc2)C1 (relative stereo)
88
CCNC(=O)N1CCC[C@H](NS(C)(=O)=O)[C@@H]1COC1CCN(c2ccccc2F)CC1 (relative stereo)
102
CS(=O)(=O)N[C@H]1CCCN(C(=O)[C@H]2CCC(=O)O2)[C@H]1CO[C@H]1CC[C@@H](c2ccccc2)CC1
94
CC1(C)CCC(C(=O)N2CCC[C@H](NS(C)(=O)=O)[C@@H]2COC2CCN(c3ncccn3)CC2)CC1 (relative stereo)
86
CS(=O)(=O)N[C@H]1CCCN(C(=O)C2CC2)[C@H]1COC1CCC(F)(c2cc(F)cc(F)c2)CC1 (relative stereo)
86
CC(=O)N1CCC[C@H](NS(C)(=O)=O)[C@@H]1CO[C@H]1CC[C@@H](c2ccccc2F)CC1
107
CS(=O)(=O)N[C@H]1CCCN(C(=O)C2CC2)[C@H]1COC1CCC(c2ccccn2)CC1 (relative stereo)
98
CC(C)OC(=O)N1CCC[C@H](NS(C)(=O)=O)[C@@H]1COC1CCN(c2ncccn2)CC1 (relative stereo)
102
CC(=O)N1CCC[C@H](NS(C)(=O)=O)[C@@H]1CO[C@H]1CC[C@@H](c2ccccc2C(F)F)CC1
95
CS(=O)(=O)N[C@H]1CCCN[C@H]1CO[C@H]1CC[C@@H](c2cc(F)cc(F)c2F)CC1
102
